- assayed_target: C5a Receptor (Homo sapiens, UniProt P21730)
- Construct: 2.5-25 μg/mL of purified PMNL membrane fragments
- Sequence (P21730 whole entry, the tested form may be a part): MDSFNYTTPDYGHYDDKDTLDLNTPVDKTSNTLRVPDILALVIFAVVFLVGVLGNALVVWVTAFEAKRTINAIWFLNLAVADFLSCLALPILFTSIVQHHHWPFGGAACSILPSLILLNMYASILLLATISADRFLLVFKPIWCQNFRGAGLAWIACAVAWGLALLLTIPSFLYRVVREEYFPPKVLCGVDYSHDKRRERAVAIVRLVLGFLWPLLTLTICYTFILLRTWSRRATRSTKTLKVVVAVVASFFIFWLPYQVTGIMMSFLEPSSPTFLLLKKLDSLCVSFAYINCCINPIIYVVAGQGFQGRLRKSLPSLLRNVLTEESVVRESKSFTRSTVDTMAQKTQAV
- assay_protocol: Anaphylatoxin receptor binding Ki determination: inhibition of 125I-C5a binding to PMNL membrane fragments
- experimental_conditions: 0.03-1 nM 125I-C5a, 2.5-25 μg/mL purified PMNL membrane fragments, filtration; read-out: In vitro C5a Receptor Binding Potency Ki
Square brackets hold non-standard residues; d marks the D form. Peptide text beside a SMILES is read from it. ξ: configuration not given here. Cha = N[C@@H](CC1CCCCC1)C(=O)O; ξTic = O=C(O)C1Cc2ccccc2CN1
Below, each of the compounds is paired with its reported pKi value.
Friendly reminder that pKi comes from taking -log10 of the concentration in mol/L.

Example cases with answers are listed next.
| compound | pKi |
| --- | --- |
| CC(C)C[C@H](NC(=O)CNC(=O)C1Cc2ccccc2CN1C(=O)[C@H](C)NC(=O)[C@H](CCCCN)NC(=O)[C@@H](N)Cc1ccccc1)C(=O)N[C@H](C)C(=O)N[C@@H](CCCNC(=N)N)C(=O)O (stereo partly drawn) [Example 445] (H-FKA[ξTic]GL[dA]R-OH) | 6.59 |
| CC(C)C[C@H](NC(=O)[C@H](CC1CCCCC1)NC(=O)[C@H](CC1CCCCC1)NC(=O)[C@H](C)NC(=O)[C@H](CCCCN)NC(=O)[C@@H](N)Cc1ccccc1)C(=O)N[C@H](C)C(=O)N[C@@H](CCCNC(=N)N)C(=O)O [Example 2] (H-FKA[Cha][Cha]L[dA]R-OH) | 7.01 |
| CC(C)C[C@H](NC(=O)CNC(=O)[C@H](CC1CCCCC1)NC(=O)[C@H](C)NC(=O)[C@H](CCCCN)NC(=O)[C@@H](N)Cc1ccccc1)C(=O)N[C@H](C)C(=O)N[C@@H](CCCNC(=N)N)C(=O)O [Example 165] (H-FKA[Cha]GL[dA]R-OH) | 7.38 |
| CC(C)C[C@H](NC(=O)[C@H](CC1CCCCC1)NC(=O)[C@H](Cc1c[nH]c2ccccc12)NC(=O)[C@H](C)NC(=O)[C@H](CCCCN)NC(=O)[C@@H](N)Cc1ccccc1)C(=O)N[C@H](C)C(=O)N[C@@H](CCCNC(=N)N)C(=O)O [Example 245] (H-FKAW[Cha]L[dA]R-OH) | 7.28 |
| CC(C)C[C@H](NC(=O)[C@H](CCCNC(=N)N)NC(=O)[C@H](CC1CCCCC1)NC(=O)[C@H](C)NC(=O)[C@H](CCCCN)NC(=O)[C@@H](N)Cc1ccccc1)C(=O)N[C@H](C)C(=O)N[C@@H](CCCNC(=N)N)C(=O)O [Example 432] (H-FKA[Cha]RL[dA]R-OH) | 7.52 |

Read the next record carefully.
Observed pKi on C5a Receptor (Homo sapiens, UniProt P21730) for CC(C)C[C@H](NC(=O)CNC(=O)[C@H](CC1CCCCC1)NC(=O)[C@@H](Cc1ccccc1)NC(=O)[C@H](CCCCN)NC(=O)[C@@H](N)Cc1ccccc1)C(=O)N[C@H](C)C(=O)N[C@@H](CCCNC(=N)N)C(=O)O [Example 316] (H-FK[dF][Cha]GL[dA]R-OH) , please.
6.77
